# protocol_details: total protein half-life in vivo (active degradation + dilution); higher = more stable protein
# details: wild type E. coli NCM3722; growth: C-lim chemostat; doubling time 3 h
readout_type: total protein half-life in vivo (h)
A number alone suffices; assume h.

Q) // total protein half-life in vivo lookup, key: MTVRVAINGFGRIGRNVVRALYESGRRAEITVVAINELADAAGMAHLLKYDTSHGRFAWEVRQERDQLFVGDDAIRVLHERSLQSLPWRELGVDVVLDCTGVYGSREHGEAHIAAGAKKVLFSHPGSNDLDATVVYGVNQDQLRAEHRIVSNASCTTNCIIPVIKLLDDAYGIESGTVTTIHSAMHDQQVIDAYHPDLRRTRAASQSIIPVDTKLAAGITRFFPQFNDRFEAIAVRVPTINVTAIDLSVTVKKPVKANEVNLLLQKAAQGAFHGIVDYTELPLVSVDFNHDPHSAIVDGTQTRVSGAHLIKTLVWCDNEWGFANRMLDTTLAMATVAFR [P0A9B6]
A) 2.85

Q) For `MTAPSQVLKIRRPDDWHLHLRDGDMLKTVVPYTSEIYGRAIVMPNLAPPVTTVEAAVAYRQRILDAVPAGHDFTPLMTCYLTDSLDPNELERGFNEGVFTAAKLYPANATTNSSHGVTSIDAIMPVLERMEKIGMPLLVHGEVTHADIDIFDREARFIESVMEPLRQRLTALKVVFEHITTKDAADYVRDGNERLAATITPQHLMFNRNHMLVGGVRPHLYCLPILKRNIHQQALRELVASGFNRVFLGTDSAPHARHRKESSCGCAGCFNAPTALGSYATVFEEMNALQHFEAFCSVNGPQFYGLPVNDTFIELVREEQQVAESIALTDDTLVPFLAGETVRWSVKQ` then?
A) 2.85

Q) For MALLDFFLSRKKNTANIAKERLQIIVAERRRSDAEPHYLPQLRKDILEVICKYVQIDPEMVTVQLEQKDGDISILELNVTLPEAEELK [P0A734] then?
A) 2.74

Q) For `MKIITCYKCVPDEQDIAVNNADGSLDFSKADAKISQYDLNAIEAACQLKQQAAEAQVTALSVGGKALTNAKGRKDVLSRGPDELIVVIDDQFEQALPQQTASALAAAAQKAGFDLILCGDGSSDLYAQQVGLLVGEILNIPAVNGVSKIISLTADTLTVERELEDETETLSIPLPAVVAVSTDINSPQIPSMKAILGAAKKPVQVWSAADIGFNAEAAWSEQQVAAPKQRERQRIVIEGDGEEQIAAFAENLRKVI` then?
A) 2.81

Q) For MTIWVDADACPNVIKEILYRAAERMQMPLVLVANQSLRVPPSRFIRTLRVAAGFDVADNEIVRQCEAGDLVITADIPLAAEAIEKGAAALNPRGERYTPATIRERLTMRDFMDTLRASGIQTGGPDSLSQRDRQAFAAELEKWWLEVQRSRG [P0A8D3] then?
A) 2.73

Q) For MKNQAHPIIVVKRRKAKSHGAAHGSWKIAYADFMTAMMAFFLVMWLISISSPKELIQIAEYFRTPLATAVTGGDRISNSESPIPGGGDDYTQSQGEVNKQPNIEELKKRMEQSRLRKLRGDLDQLIESDPKLRALRPHLKIDLVQEGLRIQIIDSQNRPMFRTGSADVEPYMRDILRAIAPVLNGIPNRISLSGHTDDFPYASGEKGYSNWELSADRANASRRELMVGGLDSGKVLRVVGMAATMRLSDRGPDDAVNRRISLLVLNKQAEQAILHENAESQNEPVSALEKPEVAPQVSVPTMPSAEPR [P0AF06] then?
A) 0.683
